Assay: Solubility of the compound in FeSSIF buffer
Type: physicochemical
reported_metric: solubility (µM)
Return type: number; implicit unit µM.

Q: Name the recorded solubility of the item Cc1nc2ccc(-c3ccnc(N)c3)nc2n1-c1ccc(N2CCN(CC#Cc3ccc(N4CCC(C(=O)N5CCC(n6cc(CNc7cccc8c7C(=O)N(C7CCC(=O)NC7=O)C8=O)cn6)CC5)CC4)nc3)CC2)c(F)c1 (stereo unspecified) in your answer.
A: 2.09

----------
Assay: AUC infinity in mouse at 10 mg/kg, ip administered as single dose
Assay type: ADME, organism-based
Settings: in vivo
reported_metric: AUC(0-inf) (ng·h/mL)
Expressed in ng·h/mL, but write only the number.

Q: State its AUC(0-inf) for this compound: Cc1nc2ccc(-c3ccnc(N)c3)nc2n1-c1ccc(N2CCN(CC#Cc3ccc(N4CCC(C(=O)N5CCC(n6cc(CNc7cccc8c7C(=O)N(C7CCC(=O)NC7=O)C8=O)cn6)CC5)CC4)nc3)CC2)c(F)c1 (stereo unspecified)
A: 27100

----------
Test: Bioavailability in mouse at 10 mg/kg, ip administered as single dose
Assay type: ADME, organism-based
Settings: in vivo
reported_metric: bioavailability (%)
Lab book: enter the figure in %, no units written.

Q: Fill in bioavailability for record Cc1nc2ccc(-c3ccnc(N)c3)nc2n1-c1ccc(N2CCN(CC#Cc3ccc(N4CCC(C(=O)N5CCC(n6cc(CNc7cccc8c7C(=O)N(C7CCC(=O)NC7=O)C8=O)cn6)CC5)CC4)nc3)CC2)c(F)c1 (stereo unspecified)
A: 109

----------
Experiment: AUC infinity in mouse at 10 mg/kg, po administered as single dose
Type: ADME, organism-based
Conditions: in vivo
reported_metric: AUC(0-inf) (ng·h/mL)
# unit: ng·h/mL | format: bare number

Q: Provide measured AUC(0-inf) value, entry: Cc1nc2ccc(-c3ccnc(N)c3)nc2n1-c1ccc(N2CCN(CC#Cc3ccc(N4CCC(C(=O)N5CCC(n6cc(CNc7cccc8c7C(=O)N(C7CCC(=O)NC7=O)C8=O)cn6)CC5)CC4)nc3)CC2)c(F)c1 (stereo unspecified)
A: 64

----------
Assay: Metabolic stability in mouse liver microsomes assessed as intrinsic clearance
Assay type: ADME, Microsome
Conditions: read-out: CLH
reported_metric: CLint scaled (mL/min/kg)
Supply the numeric figure in mL/min/kg, leaving out any unit text.

Q: // fetch CLint scaled given entry Cc1nc2ccc(-c3ccnc(N)c3)nc2n1-c1ccc(N2CCN(CC#Cc3ccc(N4CCC(C(=O)N5CCC(n6cc(CNc7cccc8c7C(=O)N(C7CCC(=O)NC7=O)C8=O)cn6)CC5)CC4)nc3)CC2)c(F)c1 (stereo unspecified)
A: 3.1

----------
Assay: MRT in mouse at 10 mg/kg, ip administered as single dose
Format: ADME, organism-based
Conditions: in vivo
reported_metric: MRT (h)
Please state the figure in h; there is no need to write the unit.

Q: Write down MRT measured for item Cc1nc2ccc(-c3ccnc(N)c3)nc2n1-c1ccc(N2CCN(CC#Cc3ccc(N4CCC(C(=O)N5CCC(n6cc(CNc7cccc8c7C(=O)N(C7CCC(=O)NC7=O)C8=O)cn6)CC5)CC4)nc3)CC2)c(F)c1 (stereo unspecified)
A: 5.77

----------
Molecular target: Protein cereblon/DNA damage-binding protein 1 (Homo sapiens, UniProt Q96SW2)
Assay: Displacement of Cy5-tagged thalidomide-like probe from recombinant CRBN/DDB1 (unknown origin) by competitive binding assay
reported_metric: IC50 (µM)
Note: unit µM is implicit; provide only the numeric part.

Q: Tell us which IC50 value is on record for O=C1CCC(N2C(=O)c3cccc(NCc4cnn(C5CCN(C(=O)C6CCN(c7ccccn7)CC6)CC5)c4)c3C2=O)C(=O)N1 (stereo unspecified)
A: 13.3
